- experimentalTarget: PMVK (Homo sapiens)
- Construct: 6xHis (N, cleaved yes); V5 (N, cleaved yes)
- Sequence (Q15126 whole entry): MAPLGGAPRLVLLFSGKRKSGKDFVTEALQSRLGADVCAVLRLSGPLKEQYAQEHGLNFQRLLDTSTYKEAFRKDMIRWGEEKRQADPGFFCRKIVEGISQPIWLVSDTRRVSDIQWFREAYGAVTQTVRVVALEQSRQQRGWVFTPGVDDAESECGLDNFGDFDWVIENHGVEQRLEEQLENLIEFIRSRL
- procedureText: Isothermal titration calorimetry with recombinant PMVK
- assayConditions: ITC, 25 °C, 50 μM protein, 500 μM ligand, buffer pH 7.4 with 1 mM MgCl2; triplicate
measurementName: Kd (µM)
Kindly answer with a numeric value in µM, unit omitted.

For the molecule shown here, O=P(O)(O)O[C@H]1[C@H](OP(=O)(O)O)[C@@H](OP(=O)(O)O)[C@H](OP(=O)(O)O)[C@@H](OP(=O)(O)O)[C@H]1OP(=O)(O)O [InsP6, inositol hexakisphosphate] , give the reported Kd.
4

Moving on to the next molecule: O=P(O)(O)O[C@H]1[C@@H](OP(=O)(O)O)[C@H](OP(=O)(O)O)[C@@H](OP(=O)(O)OP(=O)(O)O)[C@H](OP(=O)(O)O)[C@H]1OP(=O)(O)O [5PP-InsP5, 5-diphosphoinositol pentakisphosphate]
9.5
